The reported numbers originate from ChEMBL document CHEMBL4270576.

# ASSAY TARGET: Prostaglandin E synthase (Homo sapiens)
# Sequence (O14684 whole entry): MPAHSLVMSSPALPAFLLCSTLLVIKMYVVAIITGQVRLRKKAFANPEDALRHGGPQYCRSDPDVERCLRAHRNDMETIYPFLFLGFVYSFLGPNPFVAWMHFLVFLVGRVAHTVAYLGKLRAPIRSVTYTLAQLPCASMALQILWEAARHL
# TEST NAME: Inhibition of mPGES-1 isolated from microsomes of interleukin-1 beta-stimulated human A549 cells using PGH2 as substrate preincubated for 15 mins followed by substrate addition measured after 1 min by RP-HPLC analysis
pIC50: −log10 of the molar value.

- SMI: "O=C(O)c1ccc(N(Cc2cccc(Oc3ccccc3)c2)S(=O)(=O)c2ccc(Oc3ccccc3)cc2)cc1"
  pIC50: 6.10
- SMI: "O=C(O)CCc1ccc(N(Cc2ccc3ccccc3c2)S(=O)(=O)c2ccc(-c3ccccc3)cc2)cc1"
  pIC50: 6.15
- SMI: "O=C(O)c1ccc(N(Cc2cccs2)S(=O)(=O)c2ccc(-c3ccccc3)cc2)cc1"
  pIC50: 5.33
- SMI: "Cc1ccc(S(=O)(=O)N(Cc2ccc(Cl)c(Cl)c2)c2ccc(C(=O)O)cc2)cc1"
  pIC50: 5.20
